- Tested on: Human immunodeficiency virus 1
- protocol-notes: Antiviral activity against HIV1 NL4-3 harboring L10F/L24I/M46I/L63P/A71V/G73S/V82T amino acid substitution in protease encoding region infected in human MT4 cells assessed as inhibition of p24 Gag protein production selected at 5 uM of indinavir by ELISA
- Format: functional, organism-based
- measurement-setup: Human immunodeficiency virus 1, NL4-3, MT4
pEC50: −log10 of the molar value.
Parameter threshold = 7. Response is YES when pEC50 meets or exceeds it, else NO.

smiles-record: Cc1c(O)cccc1C(=O)N[C@@H](CSc1ccccc1)[C@H](O)CN1C[C@H]2CCCC[C@H]2C[C@H]1C(=O)NC(C)(C)C
subject-of-test: Human immunodeficiency virus 1
label-value: NO

smiles-record: CC(C)CN(C[C@@H](O)[C@H](Cc1ccccc1)NC(=O)O[C@H]1CCOC1)S(=O)(=O)c1ccc(N)cc1
subject-of-test: Human immunodeficiency virus 1
label-value: NO

smiles-record: COc1ccc(S(=O)(=O)N(C[C@@H]2CCC(=O)N2)C[C@@H](O)[C@H](Cc2ccccc2)NC(=O)O[C@@H]2C[C@@H]3CCO[C@@H]3C2)cc1
subject-of-test: Human immunodeficiency virus 1
label-value: YES

smiles-record: CC(C)(C)NC(=O)[C@@H]1C[C@@H]2CCCC[C@@H]2CN1C[C@@H](O)[C@H](Cc1ccccc1)NC(=O)[C@H](CC(N)=O)NC(=O)c1ccc2ccccc2n1
subject-of-test: Human immunodeficiency virus 1
label-value: YES

smiles-record: Cc1cccc(C)c1OCC(=O)N[C@@H](Cc1ccccc1)[C@@H](O)C[C@H](Cc1ccccc1)NC(=O)[C@H](C(C)C)N1CCCNC1=O
subject-of-test: Human immunodeficiency virus 1
label-value: NO

smiles-record: CC(C)c1nc(CN(C)C(=O)N[C@H](C(=O)N[C@@H](Cc2ccccc2)C[C@H](O)[C@H](Cc2ccccc2)NC(=O)OCc2cncs2)C(C)C)cs1
subject-of-test: Human immunodeficiency virus 1
label-value: NO

smiles-record: CC(C)(C)NC(=O)[C@@H]1CN(Cc2cccnc2)CCN1C[C@@H](O)C[C@@H](Cc1ccccc1)C(=O)N[C@H]1c2ccccc2C[C@H]1O.O
subject-of-test: Human immunodeficiency virus 1
label-value: NO

###

- Test system: Human immunodeficiency virus 1
- protocol-notes: Ratio of EC50 for HIV1 B harboring L10I/I15V/E35D/N37E/K45R/I54V/L63P/A71V/V82T/L90M/I93L/C95F in protease encoding region to EC50 for HIV1 ERS104pre
- Type: functional
Entries and their Ratio EC50

smiles-record: CC(C)CN(C[C@@H](O)[C@H](Cc1ccccc1)NC(=O)O[C@H]1CO[C@H]2OCC[C@H]21)S(=O)(=O)c1ccc(N)cc1
censoring-sign: =
Ratio EC50: 7
//
smiles-record: COc1ccc(S(=O)(=O)N(C[C@@H]2CCC(=O)N2)C[C@@H](O)[C@H](Cc2ccccc2)NC(=O)O[C@@H]2C[C@@H]3CCO[C@@H]3C2)cc1
censoring-sign: =
Ratio EC50: 1
//
smiles-record: CC(C)(C)NC(=O)[C@@H]1CN(Cc2cccnc2)CCN1C[C@@H](O)C[C@@H](Cc1ccccc1)C(=O)N[C@H]1c2ccccc2C[C@H]1O.O
censoring-sign: >
Ratio EC50: 48
//
smiles-record: CC(C)CN(C[C@@H](O)[C@H](Cc1ccccc1)NC(=O)O[C@H]1CCOC1)S(=O)(=O)c1ccc(N)cc1
censoring-sign: =
Ratio EC50: 12
//
smiles-record: CC(C)(C)NC(=O)[C@@H]1C[C@@H]2CCCC[C@@H]2CN1C[C@@H](O)[C@H](Cc1ccccc1)NC(=O)[C@H](CC(N)=O)NC(=O)c1ccc2ccccc2n1
censoring-sign: =
Ratio EC50: 33
//
smiles-record: Cc1c(O)cccc1C(=O)N[C@@H](CSc1ccccc1)[C@H](O)CN1C[C@H]2CCCC[C@H]2C[C@H]1C(=O)NC(C)(C)C
censoring-sign: >
Ratio EC50: 63
//
smiles-record: Cc1cn([C@H]2C[C@H](N=[N+]=[N-])[C@@H](CO)O2)c(=O)[nH]c1=O
censoring-sign: =
Ratio EC50: 200

###

- Tested on: Human immunodeficiency virus 1
- protocol-notes: Ratio of EC50 for HIV1 G harboring L10I/V11I/T12E/I15V/L19I/R41K/M46L/L63P/A71T/V82A/L90M in protease encoding region to EC50 for HIV1 ERS104pre
- Format: functional
Mark each entry rule met if its Ratio EC50 sits below 3, and rule not met for all others.

smiles-record: CC(C)CN(C[C@@H](O)[C@H](Cc1ccccc1)NC(=O)O[C@H]1CCOC1)S(=O)(=O)c1ccc(N)cc1
label-value: rule not met

smiles-record: CC(C)(C)NC(=O)[C@@H]1CN(Cc2cccnc2)CCN1C[C@@H](O)C[C@@H](Cc1ccccc1)C(=O)N[C@H]1c2ccccc2C[C@H]1O.O
label-value: rule not met

smiles-record: CC(C)CN(C[C@@H](O)[C@H](Cc1ccccc1)NC(=O)O[C@H]1CO[C@H]2OCC[C@H]21)S(=O)(=O)c1ccc(N)cc1
label-value: rule met

smiles-record: COc1ccc(S(=O)(=O)N(C[C@@H]2CCC(=O)N2)C[C@@H](O)[C@H](Cc2ccccc2)NC(=O)O[C@@H]2C[C@@H]3CCO[C@@H]3C2)cc1
label-value: rule met

smiles-record: Cc1c(O)cccc1C(=O)N[C@@H](CSc1ccccc1)[C@H](O)CN1C[C@H]2CCCC[C@H]2C[C@H]1C(=O)NC(C)(C)C
label-value: rule not met

smiles-record: Cc1cn([C@H]2C[C@H](N=[N+]=[N-])[C@@H](CO)O2)c(=O)[nH]c1=O
label-value: rule not met

###

- Test system: Human immunodeficiency virus 1
- protocol-notes: Ratio of EC50 for HIV1 C harboring L10I/I15V/K20R/L24I/M36I/M46L/I54V/I62V/L63P/K70Q/V82A/L89M in protease encoding region to EC50 for HIV1 ERS104pre
- Assay type: functional

smiles-record: CC(C)(C)NC(=O)[C@@H]1CN(Cc2cccnc2)CCN1C[C@@H](O)C[C@@H](Cc1ccccc1)C(=O)N[C@H]1c2ccccc2C[C@H]1O.O
censoring-sign: >
Ratio EC50: 48
--
smiles-record: CC(C)(C)NC(=O)[C@@H]1C[C@@H]2CCCC[C@@H]2CN1C[C@@H](O)[C@H](Cc1ccccc1)NC(=O)[C@H](CC(N)=O)NC(=O)c1ccc2ccccc2n1
censoring-sign: =
Ratio EC50: 4
--
smiles-record: Cc1cn([C@H]2C[C@H](N=[N+]=[N-])[C@@H](CO)O2)c(=O)[nH]c1=O
censoring-sign: =
Ratio EC50: 56
--
smiles-record: Cc1c(O)cccc1C(=O)N[C@@H](CSc1ccccc1)[C@H](O)CN1C[C@H]2CCCC[C@H]2C[C@H]1C(=O)NC(C)(C)C
censoring-sign: =
Ratio EC50: 23
--
smiles-record: COc1ccc(S(=O)(=O)N(C[C@@H]2CCC(=O)N2)C[C@@H](O)[C@H](Cc2ccccc2)NC(=O)O[C@@H]2C[C@@H]3CCO[C@@H]3C2)cc1
censoring-sign: =
Ratio EC50: 1
--
smiles-record: CC(C)CN(C[C@@H](O)[C@H](Cc1ccccc1)NC(=O)O[C@H]1CCOC1)S(=O)(=O)c1ccc(N)cc1
censoring-sign: =
Ratio EC50: 9
--
smiles-record: CC(C)CN(C[C@@H](O)[C@H](Cc1ccccc1)NC(=O)O[C@H]1CO[C@H]2OCC[C@H]21)S(=O)(=O)c1ccc(N)cc1
censoring-sign: =
Ratio EC50: 2

###

- System: Human immunodeficiency virus 1
- protocol-notes: Ratio of EC50 for HIV1 NL4-3 harboring L10F/M46I/I54V/V82A amino acid substitution in protease encoding region to EC50 for HIV1 NL4-3
- Format: functional

compound: CC(C)(C)NC(=O)[C@@H]1CN(Cc2cccnc2)CCN1C[C@@H](O)C[C@@H](Cc1ccccc1)C(=O)N[C@H]1c2ccccc2C[C@H]1O.O
censoring-sign: >
Ratio EC50: 71
--
compound: COc1ccc(S(=O)(=O)N(C[C@@H]2CCC(=O)N2)C[C@@H](O)[C@H](Cc2ccccc2)NC(=O)O[C@@H]2C[C@@H]3CCO[C@@H]3C2)cc1
censoring-sign: =
Ratio EC50: 2
--
compound: COC(=O)N[C@H](C(=O)N[C@@H](Cc1ccccc1)[C@@H](O)CN(Cc1ccc(-c2ccccn2)cc1)NC(=O)[C@@H](NC(=O)OC)C(C)(C)C)C(C)(C)C [ATAZANAVIR]
censoring-sign: =
Ratio EC50: 10

###

- Tested on: Human immunodeficiency virus 1
- protocol-notes: Antiviral activity against HIV1 subtype C 97ZA003 infected in human PHA-PBM cells after 7 days by MTT assay
- Format: functional, organism-based
- measurement-setup: Human immunodeficiency virus 1, subtype C 97ZA003, PBMC, 168 h

smiles-record: COc1ccc(S(=O)(=O)N(C[C@@H]2CCC(=O)N2)C[C@@H](O)[C@H](Cc2ccccc2)NC(=O)O[C@@H]2C[C@@H]3CCO[C@@H]3C2)cc1
EC50: 15 nM

Data provenance: ChEMBL document CHEMBL1649117
